Biological target: B-Raf kinase (SEQ. ID NO: 2) (Homo sapiens (Human))
Sequence (P15056 416-766): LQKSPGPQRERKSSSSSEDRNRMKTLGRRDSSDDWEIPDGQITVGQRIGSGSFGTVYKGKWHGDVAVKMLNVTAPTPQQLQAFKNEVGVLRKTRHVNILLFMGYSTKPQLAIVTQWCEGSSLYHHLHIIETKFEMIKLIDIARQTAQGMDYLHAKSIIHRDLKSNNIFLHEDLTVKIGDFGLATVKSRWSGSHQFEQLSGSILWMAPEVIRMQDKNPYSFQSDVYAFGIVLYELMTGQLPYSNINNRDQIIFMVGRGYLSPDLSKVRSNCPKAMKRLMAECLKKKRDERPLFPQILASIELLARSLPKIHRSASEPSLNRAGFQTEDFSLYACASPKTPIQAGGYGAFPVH
Test: Biochemical Assay for B-Raf (1)
Details: Table J, assay version (1); read-out: BRAF (1) IC50
pIC50: −log10 of the molar value.
Attribute: pIC50
Outcome measure: pIC50

1. COC(=O)Nc1cc(-c2cccc(-c3cc(NC(=O)c4ccnc(C(C)(C)C#N)c4)cnc3C)c2)ccn1 ≥ 7.00
2. Cc1ccc(NC(=O)c2ccnc(C3(C#N)CC3)c2)cc1-c1nccc(-c2ccnc(NC(=O)C3CC3)c2)n1 ≥ 7.00
3. Cc1ccc(NC(=O)c2ccnc(C(C)(C)C#N)c2)cc1-c1ccnc(-c2ccnc(NC(=O)C3(C#N)CC3)c2)n1 ≥ 7.00
4. COC(=O)Nc1cc(-c2cnnc(-c3cc(NC(=O)c4ccnc(C(C)(C)C#N)c4)ccc3C)c2)ccn1 ≥ 7.00
5. CO[C@H]1CC[C@H](C(=O)Nc2cnc(C)c(-c3cccc(-c4ccnc(NC(=O)C5CC5)c4)n3)c2)CC1 5.00 to 6.00
6. CC(=O)Nc1cc(-c2cc(-c3cc(NC(=O)c4ccnc(C(F)(F)F)c4)ccc3C)ccn2)ccn1 ≥ 7.00
7. Cc1ccc(NC(=O)c2ccnc(C(C)(C)C#N)c2)cc1-c1ccnc(-c2ccnc(N)c2)c1 ≥ 7.00
8. Cc1ccc(NC(=O)c2cc(C(F)(F)F)ccn2)cc1-c1ccnc(-c2ccnc(NC(=O)C3CC3)c2)n1 ≥ 7.00
9. CNC(=O)c1cc(-c2cnnc(-c3cc(NC(=O)c4ccnc(C5CC5)c4)ccc3C)c2)ccn1 6.30 to 7.00
10. COC(=O)Nc1cc(-c2cnnc(-c3cc(NC(=O)CN4CCCC4)cnc3C)c2)ccn1 5.00 to 6.00
11. Cc1cc(F)c(NC(=O)c2ccnc(C(F)(F)F)c2)cc1-c1cncc(-c2ccnc(NC(=O)C3CC3)c2)n1 ≥ 7.00
12. CNC(=O)c1cc(-c2cccc(-c3cc(NC(=O)c4cccc(C)c4)cnc3C)c2)ccn1 ≥ 7.00
13. CNC(=O)c1cc(-c2cc(-c3cc(C(=O)Nc4ccnc(C(F)(F)F)c4)ccc3C)ccn2)ccn1 6.30 to 7.00
14. CCOc1cc(-c2cc(NC(=O)c3ccnc(C(F)(F)F)c3)ccc2C)cc(-c2ccnc(NC(C)=O)c2)n1 ≥ 7.00
15. CNC(=O)c1cc(-c2cc(-c3cc(NC(=O)c4ccnc(C)c4)ccc3C)ccn2)ccn1 ≥ 7.00
16. Cc1ccc(NC(=O)c2ccnc(C3CC3)c2)cc1-c1cncc(-c2ccnc(NC(=O)C3CC3)c2)n1 ≥ 7.00
17. CC(=O)Nc1cc(-c2cc(-c3cc(NC(=O)c4ccnc(C(F)(F)F)c4)ccc3C)cn(CCO)c2=O)ccn1 6.30 to 7.00
18. Cc1ncc(NC(=O)c2ccnc(C(C)(C)C#N)c2)cc1-c1ccnc(-c2ccnc(NC(=O)C3CC3)c2)c1 ≥ 7.00
19. Cc1ccc(NC(=O)c2ccnc(C3(C#N)CC3)c2)cc1-c1cccc(-c2cc(NC(=O)C3CC3)ncn2)c1 ≥ 7.00
20. Cc1ccc(NC(=O)c2cccc(C(C)(C)C#N)c2)cc1-c1cc(OCCO)nc(-c2ccnc3c2CC(=O)N3)c1 ≥ 7.00
